test_target: T1, Human PD-L1-Fc (Homo sapiens, UniProt Q9NZQ7)
T1 construct: Antigen in Octet IgG KD Human PD-L1-Fc (M) Avid
T1 sequence (Q9NZQ7 19-239 limits assumed): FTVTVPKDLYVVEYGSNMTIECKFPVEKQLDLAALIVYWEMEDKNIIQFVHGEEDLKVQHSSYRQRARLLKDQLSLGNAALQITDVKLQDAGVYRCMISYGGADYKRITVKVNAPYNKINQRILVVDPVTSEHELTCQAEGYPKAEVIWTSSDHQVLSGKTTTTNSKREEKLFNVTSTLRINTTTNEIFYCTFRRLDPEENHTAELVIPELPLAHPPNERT
experiment_summary: Octet, IgG KD, avid format, human PD-L1-Fc
Catalogue of Kd readings, one per entry.
Respond with the bare value in nM.

ADI-37464 (antibody, V domains shown) VH: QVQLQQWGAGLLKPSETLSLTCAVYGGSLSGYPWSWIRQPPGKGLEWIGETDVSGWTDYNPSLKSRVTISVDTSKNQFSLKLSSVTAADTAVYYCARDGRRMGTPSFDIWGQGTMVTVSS VL: DIQMTQSPSSVSASVGDRVTITCRASQGINSFLAWYQQKPGKAPKLLIYAASSLNSGVPSRFSGSGSGTDFTLTISSLQPEDFATYYCQKAVYFPPTFGGGTKVEIKR    1.52
ADI-38004 (antibody, V domains shown) VH: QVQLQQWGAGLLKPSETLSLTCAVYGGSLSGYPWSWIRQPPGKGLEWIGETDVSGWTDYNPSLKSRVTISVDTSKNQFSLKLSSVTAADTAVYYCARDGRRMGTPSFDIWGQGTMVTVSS VL: DIQMTQSPSSVSASVGDRVTITCRASQGISSFLAWYQQKPGKAPKLLIYAASSLNSGVPSRFSGSGSGTDFTLTISSLQPEDFATYYCQSAVYFPPTFGGGTKVEIKR    1.22

Okay, next one:
Q: For the binder ADI-38003 (antibody, V domains shown) VH: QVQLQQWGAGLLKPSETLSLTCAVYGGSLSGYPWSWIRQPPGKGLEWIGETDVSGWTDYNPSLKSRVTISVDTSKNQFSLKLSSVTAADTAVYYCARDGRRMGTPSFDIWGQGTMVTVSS VL: DIQMTQSPSSVSASVGDRVTITCRASKGISSFLAWYQQKPGKAPKLLIYAASSLNSGVPSRFSGSGSGTDFTLTISSLQPEDFATYYCQKAVYFPPTFGGGTKVEIKR , what Kd is on record?
Result: 1.27
